Test Target: Kv1.3 potassium channel (Homo sapiens, UniProt P22001)
Sequence (P22001 whole entry): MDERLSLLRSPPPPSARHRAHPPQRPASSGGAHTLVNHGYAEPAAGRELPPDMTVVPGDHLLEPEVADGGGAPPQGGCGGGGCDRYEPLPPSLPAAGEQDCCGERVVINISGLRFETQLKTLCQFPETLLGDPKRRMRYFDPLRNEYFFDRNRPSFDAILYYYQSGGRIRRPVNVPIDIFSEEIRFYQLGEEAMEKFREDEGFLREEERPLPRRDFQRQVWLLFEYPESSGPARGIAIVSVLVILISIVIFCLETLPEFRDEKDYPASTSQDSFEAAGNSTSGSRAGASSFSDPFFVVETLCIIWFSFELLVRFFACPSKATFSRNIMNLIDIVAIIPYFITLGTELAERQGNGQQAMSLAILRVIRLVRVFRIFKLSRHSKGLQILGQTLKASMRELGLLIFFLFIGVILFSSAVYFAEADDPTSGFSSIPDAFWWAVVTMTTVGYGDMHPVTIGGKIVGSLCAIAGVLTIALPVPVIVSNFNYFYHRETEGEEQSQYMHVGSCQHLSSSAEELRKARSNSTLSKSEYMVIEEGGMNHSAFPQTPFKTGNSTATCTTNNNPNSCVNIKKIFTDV
Experiment: Whole-cell patch-clamp assay for inhibitory activity against Kv1.3 (peak current)
Run Conditions: HEK293 cells stably expressing Kv1.3, patch-clamp
Documented IC50 across a set of molecules
Answer format: numeric, nM implied, no suffix.

# count of solved cases: 7
| Molecule | Test Target | Unit Tag | Observed Value |
| --- | --- | --- | --- |
| CC(C)N1CCC(n2nc3n(c2=O)C[C@H](c2c(O)ccc(Cl)c2Cl)C3)CC1 | Kv1.3 potassium channel (Homo sapiens, UniProt P22001) | nM | 7.68 |
| CCn1nc2n(c1=O)C[C@H](c1c(O)ccc(Cl)c1Cl)C2 | Kv1.3 potassium channel (Homo sapiens, UniProt P22001) | nM | 29.8 |
| Oc1ccc(Cl)c(Cl)c1[C@@H]1Cc2nnc([C@H]3C[C@H]4CC[C@@H]3O4)n2C1 | Kv1.3 potassium channel (Homo sapiens, UniProt P22001) | nM | 27.6 |
| CC1(C)CC(c2nnc3n2CC(c2c(O)ccc(Cl)c2Cl)C3)CC(C)(C)N1 (centres unmarked) | Kv1.3 potassium channel (Homo sapiens, UniProt P22001) | nM | 58.6 |
| Oc1ccc(Cl)c(Cl)c1C1Cc2nnc(C3CCN(C4CCCCC4)CC3)n2C1 (single isomer, unassigned) | Kv1.3 potassium channel (Homo sapiens, UniProt P22001) | nM | 14.8 |
| Oc1ccc(Br)c(Cl)c1C1Cc2nnc([C@@H]3CCOC3)n2C1 (some centres unmarked) | Kv1.3 potassium channel (Homo sapiens, UniProt P22001) | nM | 20.2 |
| O=C(C1CC1)N1CCC(c2nnc3n2CC(c2c(O)ccc(Cl)c2Cl)C3)CC1 (centres unmarked) | Kv1.3 potassium channel (Homo sapiens, UniProt P22001) | nM | 27.7 |

Query: Look up IC50 for this molecule: Oc1ccc(Cl)c(Cl)c1[C@@H]1Cc2nnc([C@H]3CCNC3)n2C1
Reply: 1.3
